# SYSTEM UNDER TEST: PGR (gene 5241)
# PROCEDURE DETAILS: NVS_NR_hPR: NovaScreen (NVS) Nuclear Receptor Binding Assay for human Progestron Receptor (PR) (AID 2283360);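 note: active means loss of bound radioligand signal versus DMSO baseline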
Inconclusive results are not listed. Active and inactive are the calls of the source. Rule for the calls: active = hit-call score of the fitted dose curve at least 0.9, where 1 is the maximum; inconclusive = response in the unintended direction; inactive = score below 0.9.
Classes used: true (1) = active, false (0) = inactive

[
  {
    "MOLECULE": "CC(C)(C)C(O)/C(=C\\c1ccc(Cl)cc1Cl)n1cncn1 (stereo not given)",
    "DISCRETE LABEL": "true (1)"
  },
  {
    "MOLECULE": "O=S1OCC2C(CO1)C1(Cl)C(Cl)=C(Cl)C2(Cl)C1(Cl)Cl (stereo not given)",
    "DISCRETE LABEL": "false (0)"
  },
  {
    "MOLECULE": "O=C(O)CCCOc1ccc(Cl)cc1Cl",
    "DISCRETE LABEL": "false (0)"
  },
  {
    "MOLECULE": "Oc1ccc(Cl)cc1Cc1ccccc1",
    "DISCRETE LABEL": "true (1)"
  },
  {
    "MOLECULE": "COP(=O)(OC)OC=C(Cl)Cl",
    "DISCRETE LABEL": "false (0)"
  },
  {
    "MOLECULE": "ClC1C(Cl)C(Cl)C(Cl)C(Cl)C1Cl (stereo not given)",
    "DISCRETE LABEL": "false (0)"
  },
  {
    "MOLECULE": "CCCN(CCOc1c(Cl)cc(Cl)cc1Cl)C(=O)n1ccnc1",
    "DISCRETE LABEL": "false (0)"
  },
  {
    "MOLECULE": "COP(=S)(OC)Oc1ccc([N+](=O)[O-])cc1",
    "DISCRETE LABEL": "true (1)"
  },
  {
    "MOLECULE": "COP(=S)(OC)Oc1ccc(SC)c(C)c1",
    "DISCRETE LABEL": "false (0)"
  },
  {
    "MOLECULE": "CNC(=O)CSP(=S)(OC)OC",
    "DISCRETE LABEL": "true (1)"
  }
]

---

# Read-out: Forkhead box O1 (FOXO1), FOXO1 (gene 2308)
# PROCEDURE DETAILS: LTEA_HepaRG_FOXO1: Life Technologies and Expression Analysis (LTEA) Assay for Forkhead box O1 (FOXO1) using HepaRG (AID 2283456)
# TEST CONTEXT: mRNA level, 48 h; actives raise or lower the signal
Calls of active or inactive are those of the source. How the source made its calls: active means hit-call score of the fitted dose curve at least 0.9, where 1 is the maximum; inactive means score below 0.9.
Classes used: active, inactive

[
  {
    "MOLECULE": "N#CN",
    "DISCRETE LABEL": "inactive"
  },
  {
    "MOLECULE": "O=C(Nc1ccccc1)Nc1cnns1",
    "DISCRETE LABEL": "inactive"
  },
  {
    "MOLECULE": "COP(=S)(OC)Oc1ccc(SC)c(C)c1",
    "DISCRETE LABEL": "inactive"
  },
  {
    "MOLECULE": "O=[N+]([O-])c1c(Cl)c(Cl)c(Cl)c(Cl)c1Cl",
    "DISCRETE LABEL": "inactive"
  },
  {
    "MOLECULE": "CNC(=O)CSP(=S)(OC)OC",
    "DISCRETE LABEL": "inactive"
  },
  {
    "MOLECULE": "CC1(c2ccc(Oc3ccccc3)cc2)OC(=O)N(Nc2ccccc2)C1=O (stereo not given)",
    "DISCRETE LABEL": "active"
  },
  {
    "MOLECULE": "O=C(O)CCCOc1ccc(Cl)cc1Cl",
    "DISCRETE LABEL": "inactive"
  },
  {
    "MOLECULE": "O=S1OCC2C(CO1)C1(Cl)C(Cl)=C(Cl)C2(Cl)C1(Cl)Cl (stereo not given)",
    "DISCRETE LABEL": "inactive"
  },
  {
    "MOLECULE": "O=C1c2ccccc2C(=O)N1SC(Cl)(Cl)Cl",
    "DISCRETE LABEL": "inactive"
  },
  {
    "MOLECULE": "CC(C)(C)C(O)/C(=C\\c1ccc(Cl)cc1Cl)n1cncn1 (stereo not given)",
    "DISCRETE LABEL": "active"
  }
]
